Data origin: patent US20140005103A1

Target: UniProt:P15538
Sequence (P15538 25-503): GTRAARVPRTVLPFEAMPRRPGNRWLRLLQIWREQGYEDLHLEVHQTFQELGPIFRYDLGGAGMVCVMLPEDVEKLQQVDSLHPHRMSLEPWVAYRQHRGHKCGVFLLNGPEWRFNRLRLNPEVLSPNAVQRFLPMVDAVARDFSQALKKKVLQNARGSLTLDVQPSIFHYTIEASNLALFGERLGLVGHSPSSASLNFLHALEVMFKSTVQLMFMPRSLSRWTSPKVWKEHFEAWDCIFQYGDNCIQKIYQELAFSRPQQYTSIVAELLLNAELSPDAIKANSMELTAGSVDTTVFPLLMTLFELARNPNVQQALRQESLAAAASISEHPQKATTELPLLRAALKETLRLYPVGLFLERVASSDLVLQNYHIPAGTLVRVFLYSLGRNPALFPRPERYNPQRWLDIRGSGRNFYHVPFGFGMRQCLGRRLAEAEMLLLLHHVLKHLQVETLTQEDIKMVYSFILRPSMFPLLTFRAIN
Assay: IC50 vs CYP11B1 by cortisol synthesis in V79 cells
Settings: V79 cells expressing human CYP11B1, 1500 nM RSS, cortisol HTRF; test concentrations 0.5-10000 nM
pIC50: −log10 of the molar value.
endpoint_label: pIC50

I: C[C@H](c1ccc(F)cc1)n1cncc1CN1CCN(S(=O)(=O)c2cnc(N3CC[C@@H](N4CCOCC4)[C@H](F)C3)s2)CC1
II: C[C@H](c1ccc(F)cc1)n1cncc1CN1CCN(S(=O)(=O)c2cnc(N3CCN4C(=O)OC[C@H]4C3)s2)CC1
q: Returns: the label, I or II , whose recorded pIC50 is the lower number. Write down the label attached to your selection.
a: II
(II: 5.52, I: 5.99)

---

Here, each record is paired with measured pIC50 data.
Biological target: CYP2D6 (Homo sapiens, UniProt P10635)
Sequence (P10635 whole entry): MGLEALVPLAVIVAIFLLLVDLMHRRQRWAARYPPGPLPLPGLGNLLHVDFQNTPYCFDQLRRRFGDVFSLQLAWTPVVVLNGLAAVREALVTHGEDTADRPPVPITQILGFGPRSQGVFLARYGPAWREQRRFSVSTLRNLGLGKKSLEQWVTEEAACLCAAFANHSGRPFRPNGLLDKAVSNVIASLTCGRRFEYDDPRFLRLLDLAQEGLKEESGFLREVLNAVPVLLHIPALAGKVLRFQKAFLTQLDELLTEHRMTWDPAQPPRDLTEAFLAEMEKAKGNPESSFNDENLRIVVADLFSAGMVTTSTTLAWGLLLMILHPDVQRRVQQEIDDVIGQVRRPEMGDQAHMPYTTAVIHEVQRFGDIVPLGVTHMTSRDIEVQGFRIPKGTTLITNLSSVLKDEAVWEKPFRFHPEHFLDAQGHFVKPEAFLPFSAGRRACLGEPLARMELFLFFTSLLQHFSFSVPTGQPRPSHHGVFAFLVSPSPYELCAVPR
pIC50: −log10 of the molar value.

Field: example entries. Status: answers known.
C[C@H](c1ccc(F)cc1)n1cnnc1CN1CCN(S(=O)(=O)c2cnc(N3CCN4C[C@H](O)C[C@H]4C3)s2)CC1; < 5.00
C[C@H](c1ccc(F)cc1)n1cncc1CN1CCN(S(=O)(=O)c2cncc(N3CCNCC3)c2)CC1; < 5.00
C[C@H](c1ccc(F)cc1)n1cncc1CN1CCN(S(=O)(=O)c2cnc(N3CC[C@@H](N)[C@H](F)C3)s2)CC1 [Compound 12]; 5.55

q: Suppose we examine the molecule C[C@H](c1ccc(F)cc1)n1cncc1CN1CCN(S(=O)(=O)c2cnc(N3CC[C@@H](N)[C@H](F)C3)s2)CC1 [Compound 11] ; what pIC50 value has been reported?
a: < 5.00

q: Please answer likewise for C[C@H](c1ccc(F)cc1)n1cncc1CN1CCN(S(=O)(=O)c2cnc(N3CCN4C(=O)OC[C@H]4C3)s2)CC1
a: < 5.00

q: Please answer likewise for C[C@H](c1ccc(F)cc1)n1cncc1CN1CCN(S(=O)(=O)c2cnc(N3CC[C@@H]4NCCO[C@H]4C3)s2)CC1
a: 5.45

---

Molecular target: human CYP11B1 (Homo sapiens)
Assay: IC50 vs CYP11B1 by cortisol synthesis in V79 cells
Settings: V79 cells expressing human CYP11B1, 1500 nM RSS, cortisol HTRF; test concentrations 0.5-10000 nM
pIC50: −log10 of the molar value.
endpoint_label: pIC50

Field: example entries. Status: answers known.
C[C@H](c1ccc(C#N)cc1)n1cncc1CN1CCN(S(=O)(=O)c2cnc(Nc3ccc(C(F)(F)F)cn3)s2)CC1; 6.65
CC1CN2C[C@H](O)C[C@H]2CN1c1ncc(S(=O)(=O)N2CCN(Cc3cncn3[C@H](C)c3ccc(F)cc3)CC2)s1 (single isomer, unassigned); 5.93
C[C@H](c1ccc(F)cc1)n1cncc1CN1CCN(S(=O)(=O)c2cnc(N3CCC(N)(CO)CC3)s2)CC1; 5.16
C[C@H](c1ccc(F)cc1)n1cncc1CN1CCN(S(=O)(=O)c2cnc(N3CCN(C4CCN(C)CC4)CC3)s2)CC1; 5.69
C[C@H](c1ccc(F)cc1)n1cncc1CN1CCN(S(=O)(=O)c2cnc(N3CCN4C[C@@H](CN)C[C@H]4C3)s2)CC1; 5.72

1: C[C@H](c1ccc(F)cc1)n1cncc1CN1CCN(S(=O)(=O)c2cnc(N3CCN(C)CC3)s2)CC1
2: C[C@H](c1ccc(F)cc1)n1cncc1CN1CCN(S(=O)(=O)c2cnc(N3CCC(S(C)(=O)=O)C3)s2)CC1 (stereo partly shown) [Compound 7]
q: Compare the recorded pIC50 of 1 and 2 ; state which is larger. Write down the label attached to your selection.
a: 1
